Species: Homo sapiens
Assay: Binding affinity to Fc-tagged FGFR1alpha (unknown origin) uM after 1 hr by FITC-labeled anti-Fc detection based microarray assay
The source made the active and inactive calls. The rule behind the calls is not given here. *1 amine or outer side, *2 acyl side, *3 side chain or, on linkers, in order; H or OH if unused. Where a SMILES comes first, the peptide text is derived from it. [ ]: non-standard residue; d: D form. Gly(N-(CH2)3N-pyrrolidone) = O=C(O)CNCCCN1CCCC1=O; Gly(N-CH2CH2C6H4-4Cl) = O=C(O)CNCCc1ccc(Cl)cc1; X1 = O=C(CN(Cc1cccc(C(F)(F)F)c1)[*:1])[*:2]; Nrpe = C[C@@H](NCC(=O)O)c1ccccc1; X2 = O=C(CN(CC1CCCO1)[*:1])[*:2]; NFurfurylGly = O=C(O)CNCc1ccco1; Gly(N-cPent) = O=C(O)CNC1CCCC1; NAllylGly = C=CCNCC(=O)O; Nphe = O=C(O)CNCc1ccccc1; Nlys = NCCCCNCC(=O)O
REPORTED ENDPOINT: Activity

C=CCN(CC(=O)N(CC(=O)N(CCCN1CCCC1=O)CC(=O)N(CCCCN)CC(=O)N(CCCCN)CC(=O)N[C@@H](CS)C(N)=O)CC1CCCO1)C(=O)CN(C(=O)CN(Cc1cccc(C(F)(F)F)c1)C(=O)CNCCCN1CCCC1=O)[C@H](C)c1ccccc1 (some centres undefined) (H-[Gly(N-(CH2)3N-pyrrolidone)][X1][Nrpe][NAllylGly][X2][Gly(N-(CH2)3N-pyrrolidone)][Nlys][Nlys]C-NH2) : Active
C=CCN(CC(=O)N(CC(=O)N(CCCCN)CC(=O)N(CCCCN)CC(=O)N[C@@H](CS)C(N)=O)Cc1ccco1)C(=O)CN(Cc1ccco1)C(=O)CN(CC1CCCO1)C(=O)CN(C(=O)CNCCc1ccc(Cl)cc1)C1CCCC1 (some centres undefined) (H-[Gly(N-CH2CH2C6H4-4Cl)][Gly(N-cPent)][X2][NFurfurylGly][NAllylGly][NFurfurylGly][Nlys][Nlys]C-NH2) : Active
C=CCN(CC(=O)N(CCCCN)CC(=O)N(CCCCN)CC(=O)N[C@@H](CS)C(N)=O)C(=O)CN(C(=O)CN(Cc1ccccc1)C(=O)CN(C(=O)CN(Cc1ccccc1)C(=O)CNC1CCCC1)C1CCCC1)[C@H](C)c1ccccc1 (H-[Gly(N-cPent)][Nphe][Gly(N-cPent)][Nphe][Nrpe][NAllylGly][Nlys][Nlys]C-NH2) : Active
C=CCN(CC(=O)N(CC(=O)N(CCCCN)CC(=O)N(CCCCN)CC(=O)N[C@@H](CS)C(N)=O)[C@H](C)c1ccccc1)C(=O)CN(Cc1ccco1)C(=O)CN(C(=O)CN(Cc1cccc(C(F)(F)F)c1)C(=O)CNCc1ccccc1)C1CCCC1 (H-[Nphe][X1][Gly(N-cPent)][NFurfurylGly][NAllylGly][Nrpe][Nlys][Nlys]C-NH2) : Active

###

Biological target: Fibroblast growth factor receptor 1 (Mus musculus) (UniProt P16092)
Sequence (P16092 whole entry): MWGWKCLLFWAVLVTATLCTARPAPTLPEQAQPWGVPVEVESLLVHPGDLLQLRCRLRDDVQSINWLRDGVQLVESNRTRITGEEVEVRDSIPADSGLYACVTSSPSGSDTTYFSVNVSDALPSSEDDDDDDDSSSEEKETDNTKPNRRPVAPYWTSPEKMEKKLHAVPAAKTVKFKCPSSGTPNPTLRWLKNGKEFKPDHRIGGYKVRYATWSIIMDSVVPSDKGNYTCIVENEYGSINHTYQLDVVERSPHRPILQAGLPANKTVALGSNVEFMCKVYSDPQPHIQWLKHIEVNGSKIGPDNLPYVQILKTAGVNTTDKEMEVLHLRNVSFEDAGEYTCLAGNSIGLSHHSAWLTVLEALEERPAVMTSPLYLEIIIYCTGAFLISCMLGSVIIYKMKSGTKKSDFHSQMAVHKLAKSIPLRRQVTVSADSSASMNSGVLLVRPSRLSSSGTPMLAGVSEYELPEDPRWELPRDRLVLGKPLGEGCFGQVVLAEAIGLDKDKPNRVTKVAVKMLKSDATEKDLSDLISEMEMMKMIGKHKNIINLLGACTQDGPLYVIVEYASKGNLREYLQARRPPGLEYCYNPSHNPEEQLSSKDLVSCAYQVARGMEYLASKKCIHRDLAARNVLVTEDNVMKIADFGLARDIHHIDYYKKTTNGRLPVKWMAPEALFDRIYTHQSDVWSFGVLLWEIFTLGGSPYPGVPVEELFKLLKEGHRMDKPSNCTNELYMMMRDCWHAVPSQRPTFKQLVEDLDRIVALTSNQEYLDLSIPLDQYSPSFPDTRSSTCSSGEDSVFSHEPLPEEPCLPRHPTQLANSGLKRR
Experiment: Agonist activity at FGFR1 in mouse NIH-3T3 cells assessed as increase in ERK phosphorylation at 15 uM after 10 mins by Western blot analysis
Assay type: cell-based
Conditions: NIH3T3
The source made the active and inactive calls. No cut-off for these calls is given here. *1 amine or outer side, *2 acyl side, *3 side chain or, on linkers, in order; H or OH if unused. Where a SMILES comes first, the peptide text is derived from it. [ ]: non-standard residue; d: D form. Gly(N-(CH2)3N-pyrrolidone) = O=C(O)CNCCCN1CCCC1=O; Gly(N-CH2CH2C6H4-4Cl) = O=C(O)CNCCc1ccc(Cl)cc1; X1 = O=C(CN(Cc1cccc(C(F)(F)F)c1)[*:1])[*:2]; Nrpe = C[C@@H](NCC(=O)O)c1ccccc1; X2 = O=C(CN(CC1CCCO1)[*:1])[*:2]; NFurfurylGly = O=C(O)CNCc1ccco1; Gly(N-cPent) = O=C(O)CNC1CCCC1; NAllylGly = C=CCNCC(=O)O; Nphe = O=C(O)CNCc1ccccc1; Nlys = NCCCCNCC(=O)O
Hi! Could you answer with just one of these? 1 for active, -1 for inactive

Take a look at these entries with their results.
C=CCN(CC(=O)N(CC(=O)N(CCCCN)CC(=O)N(CCCCN)CC(=O)N[C@@H](CS)C(N)=O)Cc1ccco1)C(=O)CN(Cc1ccco1)C(=O)CN(CC1CCCO1)C(=O)CN(C(=O)CNCCc1ccc(Cl)cc1)C1CCCC1 (some centres undefined) (H-[Gly(N-CH2CH2C6H4-4Cl)][Gly(N-cPent)][X2][NFurfurylGly][NAllylGly][NFurfurylGly][Nlys][Nlys]C-NH2) : -1
C=CCN(CC(=O)N(CC(=O)N(CCCN1CCCC1=O)CC(=O)N(CCCCN)CC(=O)N(CCCCN)CC(=O)N[C@@H](CS)C(N)=O)CC1CCCO1)C(=O)CN(C(=O)CN(Cc1cccc(C(F)(F)F)c1)C(=O)CNCCCN1CCCC1=O)[C@H](C)c1ccccc1 (some centres undefined) (H-[Gly(N-(CH2)3N-pyrrolidone)][X1][Nrpe][NAllylGly][X2][Gly(N-(CH2)3N-pyrrolidone)][Nlys][Nlys]C-NH2) : 1
C=CCN(CC(=O)N(CCCCN)CC(=O)N(CCCCN)CC(=O)N[C@@H](CS)C(N)=O)C(=O)CN(C(=O)CN(Cc1ccccc1)C(=O)CN(C(=O)CN(Cc1ccccc1)C(=O)CNC1CCCC1)C1CCCC1)[C@H](C)c1ccccc1 (H-[Gly(N-cPent)][Nphe][Gly(N-cPent)][Nphe][Nrpe][NAllylGly][Nlys][Nlys]C-NH2) : 1

Would you kindly look at the next entry?
Query :: Recorded test call requested for C=CCN(CC(=O)N(CC(=O)N(CCCCN)CC(=O)N(CCCCN)CC(=O)N[C@@H](CS)C(N)=O)[C@H](C)c1ccccc1)C(=O)CN(Cc1ccco1)C(=O)CN(C(=O)CN(Cc1cccc(C(F)(F)F)c1)C(=O)CNCc1ccccc1)C1CCCC1 (H-[Nphe][X1][Gly(N-cPent)][NFurfurylGly][NAllylGly][Nrpe][Nlys][Nlys]C-NH2)
Result :: 1

###

Target: Fibroblast growth factor receptor 1 (Homo sapiens)
Experiment: Agonist activity at FGFR1 in human MCF7 cells assessed as increase in Akt phosphorylation at 15 uM after 10 mins by Western blot analysis
Format: cell-based
The source made the active and inactive calls. The calls are words filed in the database; no cut-off is given here. *1 amine or outer side, *2 acyl side, *3 side chain or, on linkers, in order; H or OH if unused. Where a SMILES comes first, the peptide text is derived from it. [ ]: non-standard residue; d: D form. Gly(N-(CH2)3N-pyrrolidone) = O=C(O)CNCCCN1CCCC1=O; Gly(N-CH2CH2C6H4-4Cl) = O=C(O)CNCCc1ccc(Cl)cc1; X1 = O=C(CN(Cc1cccc(C(F)(F)F)c1)[*:1])[*:2]; Nrpe = C[C@@H](NCC(=O)O)c1ccccc1; X2 = O=C(CN(CC1CCCO1)[*:1])[*:2]; NFurfurylGly = O=C(O)CNCc1ccco1; Gly(N-cPent) = O=C(O)CNC1CCCC1; NAllylGly = C=CCNCC(=O)O; Nphe = O=C(O)CNCc1ccccc1; Nlys = NCCCCNCC(=O)O
Hi! Could you answer with just one of these? yes (1) = active, no (0) = inactive

Query :: Recorded test call requested for C=CCN(CC(=O)N(CCCCN)CC(=O)N(CCCCN)CC(=O)N[C@@H](CS)C(N)=O)C(=O)CN(C(=O)CN(Cc1ccccc1)C(=O)CN(C(=O)CN(Cc1ccccc1)C(=O)CNC1CCCC1)C1CCCC1)[C@H](C)c1ccccc1 (H-[Gly(N-cPent)][Nphe][Gly(N-cPent)][Nphe][Nrpe][NAllylGly][Nlys][Nlys]C-NH2)
Result :: yes (1)

Query :: Recorded test call requested for C=CCN(CC(=O)N(CC(=O)N(CCCCN)CC(=O)N(CCCCN)CC(=O)N[C@@H](CS)C(N)=O)Cc1ccco1)C(=O)CN(Cc1ccco1)C(=O)CN(CC1CCCO1)C(=O)CN(C(=O)CNCCc1ccc(Cl)cc1)C1CCCC1 (some centres undefined) (H-[Gly(N-CH2CH2C6H4-4Cl)][Gly(N-cPent)][X2][NFurfurylGly][NAllylGly][NFurfurylGly][Nlys][Nlys]C-NH2)
Result :: no (0)

Query :: Recorded test call requested for C=CCN(CC(=O)N(CC(=O)N(CCCCN)CC(=O)N(CCCCN)CC(=O)N[C@@H](CS)C(N)=O)[C@H](C)c1ccccc1)C(=O)CN(Cc1ccco1)C(=O)CN(C(=O)CN(Cc1cccc(C(F)(F)F)c1)C(=O)CNCc1ccccc1)C1CCCC1 (H-[Nphe][X1][Gly(N-cPent)][NFurfurylGly][NAllylGly][Nrpe][Nlys][Nlys]C-NH2)
Result :: yes (1)

Query :: Recorded test call requested for C=CCN(CC(=O)N(CC(=O)N(CCCN1CCCC1=O)CC(=O)N(CCCCN)CC(=O)N(CCCCN)CC(=O)N[C@@H](CS)C(N)=O)CC1CCCO1)C(=O)CN(C(=O)CN(Cc1cccc(C(F)(F)F)c1)C(=O)CNCCCN1CCCC1=O)[C@H](C)c1ccccc1 (some centres undefined) (H-[Gly(N-(CH2)3N-pyrrolidone)][X1][Nrpe][NAllylGly][X2][Gly(N-(CH2)3N-pyrrolidone)][Nlys][Nlys]C-NH2)
Result :: yes (1)
